B1: FUT8 (parent)
chain: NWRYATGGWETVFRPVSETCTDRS

- Variants of: B1
- Test Details: protein stability index of a GFP-peptide fusion (GPS, HEK-293T) (PSI 1-6); higher = more stable;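 further: lentivirally expressed fusions sorted by FACS into six bins by GFP to DsRed ratio, PSI derived from sequencing read proportions per bin multiplied by bin number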
- Measurement Setup: c terminus: a fixed tail appended
Decision: protein stability index >= 2 yields Criterion met, all other cases yield Criterion not met.

Check out these entries, answers already filled in.
# Sequence Change, Class Name
rows = [
    ("E10H", "Criterion met"),
    ("D22P", "Criterion not met"),
    ("T19L", "Criterion met"),
]

Now look at this entry.
Tell me whether protein stability index is at least 2 here: D22R Criterion not met

Where these numbers come from: the supplement of paper PMC10567573
